test system: ASPS-1 complex tumor spheroids, viability; experiment: Anticancer human tumor ASPS-1 cell line growth inhibition; details: curve of first compound; second compound 94.9 pM;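 further: spheroids exposed to agents for 7 days after 3 days of growth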
Assign IC50 to each entry below.

Worked cases, answers included:
[
  {
    "Compound": "CC1COCCN1c1cc(-c2ccnn2C)c2ccnc(-c3ccn[nH]3)c2n1 (stereo not given) + COc1cc2c(cc1O)CCNC21CSC2c3c(OC(C)=O)c(C)c4c(c3C(COC1=O)N1C(O)C3Cc5cc(C)c(OC)c(O)c5C(C21)N3C)OCO4",
    "IC50": "0.102 µM"
  },
  {
    "Compound": "Cn1ncnc1[C@H]1c2n[nH]c(=O)c3cc(F)cc(c23)N[C@@H]1c1ccc(F)cc1 + COc1cc2c(cc1O)CCNC21CSC2c3c(OC(C)=O)c(C)c4c(c3C(COC1=O)N1C(O)C3Cc5cc(C)c(OC)c(O)c5C(C21)N3C)OCO4",
    "IC50": "> 3 µM"
  },
  {
    "Compound": "[2H]c1nc(C)nc([2H])c1-c1cc(NC[C@@H](C)c2cccc3c(C(=O)NC)ccnc23)ncn1 + COc1cc2c(cc1O)CCNC21CSC2c3c(OC(C)=O)c(C)c4c(c3C(COC1=O)N1C(O)C3Cc5cc(C)c(OC)c(O)c5C(C21)N3C)OCO4",
    "IC50": "> 10 µM"
  },
  {
    "Compound": "CC(C)n1c(=O)n(C)c2cnc3cc(F)c(-c4ccc(OCCCN5CCCCC5)nc4)cc3c21 + COc1cc2c(cc1O)CCNC21CSC2c3c(OC(C)=O)c(C)c4c(c3C(COC1=O)N1C(O)C3Cc5cc(C)c(OC)c(O)c5C(C21)N3C)OCO4",
    "IC50": "> 10 µM"
  },
  {
    "Compound": "COc1cc(C)[nH]c(=O)c1CN1CCc2c(Cl)cc(C(OC)C3COC3)c(Cl)c2C1=O (stereo not given) + COc1cc2c(cc1O)CCNC21CSC2c3c(OC(C)=O)c(C)c4c(c3C(COC1=O)N1C(O)C3Cc5cc(C)c(OC)c(O)c5C(C21)N3C)OCO4",
    "IC50": "> 10 µM"
  }
]

# batch: return IC50 for each of the 5 compounds below
1. Cc1sc2c(c1C)C(c1ccc(Cl)cc1)=NC(CC(=O)Nc1ccc(O)cc1)c1nnc(C)n1-2 (stereo not given) + COc1cc2c(cc1O)CCNC21CSC2c3c(OC(C)=O)c(C)c4c(c3C(COC1=O)N1C(O)C3Cc5cc(C)c(OC)c(O)c5C(C21)N3C)OCO4
2. COc1ccc([C@@H](O)c2cc(-c3ncnc4cc(N5CCOCC5)ccc34)c(F)cc2Cl)nn1 + COc1cc2c(cc1O)CCNC21CSC2c3c(OC(C)=O)c(C)c4c(c3C(COC1=O)N1C(O)C3Cc5cc(C)c(OC)c(O)c5C(C21)N3C)OCO4
3. Cc1cc(C)c(CNC(=O)c2cc(-c3ccc(CN4CCOCC4)cc3)cc3c2cnn3C2CCCC2)c(=O)[nH]1 + COc1cc2c(cc1O)CCNC21CSC2c3c(OC(C)=O)c(C)c4c(c3C(COC1=O)N1C(O)C3Cc5cc(C)c(OC)c(O)c5C(C21)N3C)OCO4
4. O=C(c1cc(Cc2n[nH]c(=O)c3ccccc23)ccc1F)N1CCN(C(=O)C2CC2)CC1 + COc1cc2c(cc1O)CCNC21CSC2c3c(OC(C)=O)c(C)c4c(c3C(COC1=O)N1C(O)C3Cc5cc(C)c(OC)c(O)c5C(C21)N3C)OCO4
5. CNCc1ccc(-c2cc(-c3nc(-c4ccc(S(=O)(=O)C(C)C)cc4)cnc3N)on2)cc1 + COc1cc2c(cc1O)CCNC21CSC2c3c(OC(C)=O)c(C)c4c(c3C(COC1=O)N1C(O)C3Cc5cc(C)c(OC)c(O)c5C(C21)N3C)OCO4

Result:
> 3 µM
4.8 µM
> 10 µM
22.1 µM
0.857 µM

====

test system: ASPS-1 complex tumor spheroids, viability; assay: Anticancer human tumor ASPS-1 cell line growth inhibition; conditions: second compound 30 pM; first compound 10 µM; stronger effect = lower value;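 further: spheroids exposed to agents for 7 days after 3 days of growth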;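 on viability, T/C: 100% = DMSO vehicle treated spheroids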
Measure name: viability, T/C

Worked cases, answers included:
[
  {
    "Compound": "COc1cc(C)[nH]c(=O)c1CN1CCc2c(Cl)cc(C(OC)C3COC3)c(Cl)c2C1=O (stereo unspecified) + COc1cc2c(cc1O)CCNC21CSC2c3c(OC(C)=O)c(C)c4c(c3C(COC1=O)N1C(O)C3Cc5cc(C)c(OC)c(O)c5C(C21)N3C)OCO4",
    "viability, T/C": "101%"
  },
  {
    "Compound": "CC(C)n1c(=O)n(C)c2cnc3cc(F)c(-c4ccc(OCCCN5CCCCC5)nc4)cc3c21 + COc1cc2c(cc1O)CCNC21CSC2c3c(OC(C)=O)c(C)c4c(c3C(COC1=O)N1C(O)C3Cc5cc(C)c(OC)c(O)c5C(C21)N3C)OCO4",
    "viability, T/C": "50%"
  },
  {
    "Compound": "CC1COCCN1c1cc(-c2ccnn2C)c2ccnc(-c3ccn[nH]3)c2n1 (stereo unspecified) + COc1cc2c(cc1O)CCNC21CSC2c3c(OC(C)=O)c(C)c4c(c3C(COC1=O)N1C(O)C3Cc5cc(C)c(OC)c(O)c5C(C21)N3C)OCO4",
    "viability, T/C": "38.9%"
  },
  {
    "Compound": "Cc1cc(C)c(CNC(=O)c2cc(-c3ccc(CN4CCOCC4)cc3)cc3c2cnn3C2CCCC2)c(=O)[nH]1 + COc1cc2c(cc1O)CCNC21CSC2c3c(OC(C)=O)c(C)c4c(c3C(COC1=O)N1C(O)C3Cc5cc(C)c(OC)c(O)c5C(C21)N3C)OCO4",
    "viability, T/C": "84.4%"
  },
  {
    "Compound": "[2H]c1nc(C)nc([2H])c1-c1cc(NC[C@@H](C)c2cccc3c(C(=O)NC)ccnc23)ncn1 + COc1cc2c(cc1O)CCNC21CSC2c3c(OC(C)=O)c(C)c4c(c3C(COC1=O)N1C(O)C3Cc5cc(C)c(OC)c(O)c5C(C21)N3C)OCO4",
    "viability, T/C": "98.7%"
  }
]

Task: Query (compound): COc1ccc([C@@H](O)c2cc(-c3ncnc4cc(N5CCOCC5)ccc34)c(F)cc2Cl)nn1 + COc1cc2c(cc1O)CCNC21CSC2c3c(OC(C)=O)c(C)c4c(c3C(COC1=O)N1C(O)C3Cc5cc(C)c(OC)c(O)c5C(C21)N3C)OCO4 ; field requested: viability, T/C
Result: 34.7%

====

system: ASPS-1 complex tumor spheroids, viability; experiment: Anticancer human tumor ASPS-1 cell line growth inhibition; conditions: second compound 0.000949 µM; first compound 1 µM; stronger effect = lower value;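 further: spheroids exposed to agents for 7 days after 3 days of growth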;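 on viability, T/C: 100% = DMSO vehicle treated spheroids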
Measure name: viability, T/C

[
  {
    "Compound": "COc1ccc([C@@H](O)c2cc(-c3ncnc4cc(N5CCOCC5)ccc34)c(F)cc2Cl)nn1 + COc1cc2c(cc1O)CCNC21CSC2c3c(OC(C)=O)c(C)c4c(c3C(COC1=O)N1C(O)C3Cc5cc(C)c(OC)c(O)c5C(C21)N3C)OCO4",
    "viability, T/C": "17.5%"
  },
  {
    "Compound": "CC(C)n1c(=O)n(C)c2cnc3cc(F)c(-c4ccc(OCCCN5CCCCC5)nc4)cc3c21 + COc1cc2c(cc1O)CCNC21CSC2c3c(OC(C)=O)c(C)c4c(c3C(COC1=O)N1C(O)C3Cc5cc(C)c(OC)c(O)c5C(C21)N3C)OCO4",
    "viability, T/C": "25.1%"
  },
  {
    "Compound": "COc1cc(C)[nH]c(=O)c1CN1CCc2c(Cl)cc(C(OC)C3COC3)c(Cl)c2C1=O (stereo unspecified) + COc1cc2c(cc1O)CCNC21CSC2c3c(OC(C)=O)c(C)c4c(c3C(COC1=O)N1C(O)C3Cc5cc(C)c(OC)c(O)c5C(C21)N3C)OCO4",
    "viability, T/C": "64.7%"
  },
  {
    "Compound": "CC1COCCN1c1cc(-c2ccnn2C)c2ccnc(-c3ccn[nH]3)c2n1 (stereo unspecified) + COc1cc2c(cc1O)CCNC21CSC2c3c(OC(C)=O)c(C)c4c(c3C(COC1=O)N1C(O)C3Cc5cc(C)c(OC)c(O)c5C(C21)N3C)OCO4",
    "viability, T/C": "25.9%"
  },
  {
    "Compound": "Cc1cc(C)c(CNC(=O)c2cc(-c3ccc(CN4CCOCC4)cc3)cc3c2cnn3C2CCCC2)c(=O)[nH]1 + COc1cc2c(cc1O)CCNC21CSC2c3c(OC(C)=O)c(C)c4c(c3C(COC1=O)N1C(O)C3Cc5cc(C)c(OC)c(O)c5C(C21)N3C)OCO4",
    "viability, T/C": "31.6%"
  }
]

Would you kindly look at the next entry?
Task: Query (compound): [2H]c1nc(C)nc([2H])c1-c1cc(NC[C@@H](C)c2cccc3c(C(=O)NC)ccnc23)ncn1 + COc1cc2c(cc1O)CCNC21CSC2c3c(OC(C)=O)c(C)c4c(c3C(COC1=O)N1C(O)C3Cc5cc(C)c(OC)c(O)c5C(C21)N3C)OCO4 ; field requested: viability, T/C
Result: 66.2%
